These measurements were taken from patent US20110136727A1.

- Tested on: E. coli O111:B4
- assay details: LPS competition assay on random-sequence peptide microarray (binding of fluorescently labeled bacteria with and without excess free LPS)
- study conditions: fluorescent intensity of SYTO 9 labeled E. coli O111:B4 binding to the arrayed peptide without vs with excess non-labeled LPS of the same strain
Give measured Ratio ECO/(ECO + LPS) for each item. Keep answers brief.
Answers are plain numbers.

Here's what some known entries look like.
[
  {
    "substance": "46 (RHWRPKFRKFRWWRWHHGSC) [compound 46]",
    "data value": 2.125
  },
  {
    "substance": "20 (HHWWRKRRRKRHRKHWKGSC) [compound 20]",
    "data value": 3.527
  },
  {
    "substance": "2 (HWKRRHKHKWPKRHPHKGSC) [compound 2]",
    "data value": 13.22
  },
  {
    "substance": "31 (HWHHRWWHHWKHPHHWRGSC) [compound 31]",
    "data value": 2.854
  },
  {
    "substance": "45 (RKRKWHHPWHWRRKRRWGSC) [compound 45]",
    "data value": 2.136
  }
]

Then there is this substance:
Query string: I am curious: what Ratio ECO/(ECO + LPS) value has been reported for 29 (RKHHKKPHKRKRWKWWPGSC) [compound 29] ?
Result string: 3.021

* * *

- System: E. coli O111:B4
- assay details: LPS competition assay on random-sequence peptide microarray (binding of fluorescently labeled bacteria with and without excess free LPS)
- study conditions: fluorescent intensity of SYTO 9 labeled E. coli O111:B4 binding to the arrayed peptide without vs with excess non-labeled LPS of the same strain
measure name: Ratio ECO/(ECO + LPS)

[
  {
    "substance": "1 (WWRRKKWHKHKRKHPRFGSC) [compound 1]",
    "subject of test": "E. coli O111:B4",
    "Ratio ECO/(ECO + LPS)": 18.76
  },
  {
    "substance": "22 (RWFPKKHHHRWRKWWKKGSC) [compound 22]",
    "subject of test": "E. coli O111:B4",
    "Ratio ECO/(ECO + LPS)": 3.506
  },
  {
    "substance": "14 (HRKRPKRHHKRHWPRWKGSC) [compound 14]",
    "subject of test": "E. coli O111:B4",
    "Ratio ECO/(ECO + LPS)": 4.429
  },
  {
    "substance": "38 (WWHHKWFKHKKFWRHKFGSC) [compound 38]",
    "subject of test": "E. coli O111:B4",
    "Ratio ECO/(ECO + LPS)": 2.349
  },
  {
    "substance": "30 (RFHWKHRRKWKHHHPRRGSC) [compound 30]",
    "subject of test": "E. coli O111:B4",
    "Ratio ECO/(ECO + LPS)": 2.944
  }
]

Hi team, please reply with Ratio ECO/(ECO + LPS) for each item in this list.
1. 5 (WKKKRKHRHKKHWHPWRGSC) [compound 5]
2. 17 (WHHKWRFWKHFRHKRHFGSC) [compound 17]
3. 54 (RRFRHWWRWRKRRRKWRGSC) [compound 54]
4. 4 (HFHHWKWKHHHHRHRRFGSC) [compound 4]
5. 11 (PWWKWRKRKHPKKHHKRGSC) [compound 11]

Result string:
1: 10.3; 2: 4.216; 3: 1.914; 4: 11.28; 5: 4.687

Hey, can you go through the list below and give me Ratio ECO/(ECO + LPS) for every item?
1. 51 (HRKWHWPWKWPWKRKRWGSC) [compound 51]
2. 44 (IYNKRSQVRRKGFKKKYGSC) [compound 44]
3. 48 (HKWHRKKFHKHRFKHHKGSC) [compound 48]
4. 43 (WRFKHFRWKRFKHHHKKGSC) [compound 43]
5. 10 (HPWWWHHKKRRHHKHKKGSC) [compound 10]
6. 26 (RTYWNYGIMRHNKTRKGGSC) [compound 26]

Result string:
1: 2.033; 2: 2.169; 3: 2.112; 4: 2.263; 5: 5.345; 6: 3.331

Provide each entry's Ratio ECO/(ECO + LPS) from the list below.
1. 42 (HWHPRWHKHKFKHWRWHGSC) [compound 42]
2. 12 (WKWKRHWKWPHRRKHFFGSC) [compound 12]

Result string:
1: 2.273; 2: 4.576

Answer for every listed entry: what is its Ratio ECO/(ECO + LPS)? The entries follow.
1. 18 (SIADIHKRKFRVRRKHIGSC) [compound 18]
2. 28 (KHWHWHKRKKHHRKFFWGSC) [compound 28]
3. 32 (WKFRHRHHRHHWHKKWKGSC) [compound 32]
4. 9 (HFRKWHKRRWKHHKKWKGSC) [compound 9]
5. 35 (HRWWFKKKHRFRWWKRWGSC) [compound 35]
6. 13 (WHRKFFRWRFHRHKKHKGSC) [compound 13]
7. 8 (WHHWFHHKKKKPWWKKKGSC) [compound 8]
8. 27 (WHWHHWKHKKRRHHWRRGSC) [compound 27]

Result string:
[4.04, 3.0313, 2.844, 8.435, 2.404, 4.547, 8.832, 3.261]

For each of the items listed, what is its Ratio ECO/(ECO + LPS)?
1. 6 (RHWRKPRKWHKKWPPHRGSC) [compound 6]
2. 34 (RRWWRKRFWHHRWHRRKGSC) [compound 34]
3. 24 (HKRHKKHFKFFRWHRKWGSC) [compound 24]
4. 3 (HWKRHHRPKHKHHRHKHGSC) [compound 3]

Result string:
1: 9.881; 2: 2.423; 3: 3.428; 4: 11.48

// input: 5 substances below; output: Ratio ECO/(ECO + LPS) for each
1. 52 (RPKPHRHWKPKFPHHHWGSC) [compound 52]
2. 36 (RFFFHKWRRWRRRKPPRGSC) [compound 36]
3. 25 (TKRIHKWPQDAYRIRRGGSC) [compound 25]
4. 21 (RWQKKVKMKRDHVYFRMGSC) [compound 21]
5. 53 (WRRSTPVGPWTWFGKFLGSC) [compound 53]

Result string:
[2.031, 2.378, 3.355, 3.526, 1.974]

List Ratio ECO/(ECO + LPS) for every entry below, keeping the order given.
1. 33 (HRKPKFRHHHFKWKHWKGSC) [compound 33]
2. 19 (PWKFHRHWHHHKHWKWKGSC) [compound 19]
3. 7 (WKRPWHRWHPKRRKWRHGSC) [compound 7]
4. 16 (KHPFWHPHRRHKKKRWFGSC) [compound 16]

Result string:
1. 2.786
2. 3.644
3. 9.611
4. 4.283

Dear colleague, could you please provide Ratio ECO/(ECO + LPS) for the substances listed below?
1. 23 (HHHHKRKHFWRPRHPRKGSC) [compound 23]
2. 41 (KWKHHKKFRKRKRHWFHGSC) [compound 41]
3. 37 (RWRRHKHFKRPHRKHKRGSC) [compound 37]
4. 40 (KHKWWRWHKWHWWFRKHGSC) [compound 40]
5. 39 (WKPWFHPRKHHKWRHWHGSC) [compound 39]
6. 49 (WFWKHKKWRRHPRKWHWGSC) [compound 49]
7. 50 (EPKLWFKPRRGGYRHRHGSC) [compound 50]

Result string:
[3.493, 2.316, 2.375, 2.322, 2.334, 2.104, 2.035]

Go through the items and report each one's Ratio ECO/(ECO + LPS).
1. 15 (KKFHPHFKPWHFRHKKPGSC) [compound 15]
2. 47 (FHKKRHFKRRHKFWWWRGSC) [compound 47]

Result string:
4.303
2.114
